assay: physchem; conditions: water
Where a name gives a salt, the structure may show the parent alone.
Form field: solubility (one value per entry).
Observed Property: solubility

{"Compound": "NC(Cc1ccccc1)C(=O)NC1CCN(c2nc3c(cc2F)c(=O)c(C(=O)O)cn3-c2ccc(F)cc2F)C1 (stereo not shown)", "Result": "> 101 mg/mL"}
{"Compound": "CCC[C@H](NC(=O)[C@@H](N)CCC)C(=O)NC1CCN(c2nc3c(cc2F)c(=O)c(C(=O)O)cn3-c2ccc(F)cc2F)C1 (stereo partly shown) [Example 3b, hydrochloride]", "Result": "> 40 mg/mL"}
{"Compound": "NCC(=O)N[C@@H](Cc1ccccc1)C(=O)NC1CCN(c2nc3c(cc2F)c(=O)c(C(=O)O)cn3-c2ccc(F)cc2F)C1 (stereo partly shown) [Example 1b, hydrochloride]", "Result": "> 98 mg/mL"}
{"Compound": "CC(N)C(=O)NC1CCN(c2nc3c(cc2F)c(=O)c(C(=O)O)cn3-c2ccc(F)cc2F)C1 (stereo not shown)", "Result": "> 20 mg/mL"}
{"Compound": "CC(N)C(=O)NC(Cc1ccccc1)C(=O)NC1CCN(c2nc3c(cc2F)c(=O)c(C(=O)O)cn3-c2ccc(F)cc2F)C1 (stereo not shown)", "Result": "> 20 mg/mL"}
{"Compound": "CC(N)C(=O)NC(C)C(=O)NC1CCN(c2nc3c(cc2F)c(=O)c(C(=O)O)cn3-c2ccc(F)cc2F)C1 (stereo not shown)", "Result": "> 70 mg/mL"}
{"Compound": "CC(C)C(N)C(=O)NC1CCN(c2nc3c(cc2F)c(=O)c(C(=O)O)cn3-c2ccc(F)cc2F)C1 (stereo not shown)", "Result": "> 10 mg/mL"}
{"Compound": "NC(Cc1ccc(O)cc1)C(=O)NC1CCN(c2nc3c(cc2F)c(=O)c(C(=O)O)cn3-c2ccc(F)cc2F)C1 (stereo not shown)", "Result": "> 90 mg/mL"}
{"Compound": "CCCC(N)C(=O)NC1CCN(c2nc3c(cc2F)c(=O)c(C(=O)O)cn3-c2ccc(F)cc2)C1 (stereo not shown) [Example 26i]", "Result": "> 9 mg/mL"}
{"Compound": "CS(=O)(=O)CC[C@H](N)C(=O)NC1CCN(c2nc3c(cc2F)c(=O)c(C(=O)O)cn3-c2ccc(F)cc2F)C1 (stereo partly shown) [Example 31c, Hydrochloride]", "Result": "> 35 mg/mL"}
{"Compound": "N[C@@H](Cc1cnc[nH]1)C(=O)NC1CCN(c2nc3c(cc2F)c(=O)c(C(=O)O)cn3-c2ccc(F)cc2F)C1 (stereo partly shown) [Example 44c, Dihydrochloride]", "Result": "> 100 mg/mL"}
{"Compound": "NC(=O)C[C@H](N)C(=O)NC1CCN(c2nc3c(cc2F)c(=O)c(C(=O)O)cn3-c2ccc(F)cc2F)C1 (stereo partly shown) [Example 41, hydrochloride]", "Result": "> 35 mg/mL"}
{"Compound": "CC(C)CC(N)C(=O)NC1CCN(c2nc3c(cc2F)c(=O)c(C(=O)O)cn3-c2ccc(F)cc2F)C1 (stereo not shown)", "Result": "> 35 mg/mL"}
